The following compounds are listed with their measured IC50 values.
target: GDP-KRAS G12D (Homo sapiens, UniProt P01116, G12D); experiment: biochemical
Sequence (P01116 1-169 isoform P01116-2 G12D): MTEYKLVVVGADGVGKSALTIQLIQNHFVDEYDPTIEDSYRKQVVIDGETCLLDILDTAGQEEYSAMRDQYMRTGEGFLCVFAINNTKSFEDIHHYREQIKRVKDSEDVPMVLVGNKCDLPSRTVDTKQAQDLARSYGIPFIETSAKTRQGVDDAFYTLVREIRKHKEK

# compound, target.desc, IC50 / nM
data = [
    ("C#Cc1c(F)ccc2cc(N)cc(-c3nc4c5c(nc(OC[C@@]67CCCN6C[C@H](F)C7)nc5c3F)N3[C@@H](C)CCOC[C@H]3N4C)c12 [Compound 36]", "GDP-KRAS G12D (Homo sapiens, UniProt P01116, G12D)", 0.339),
    ("C#Cc1c(F)ccc2cc(N)cc(-c3nc4c5c(nc(OC[C@@]67CCCN6C[C@H](F)C7)nc5c3F)N3[C@@H](CC)CCOC[C@H]3N4C)c12 [Compound 94]", "GDP-KRAS G12D (Homo sapiens, UniProt P01116, G12D)", 1.17),
    ("C#Cc1c(F)ccc2cc(N)cc(-c3nc4c5c(nc(OC[C@@]67CCCN6C[C@H](F)C7)nc5c3F)N3CCCC(O)CC3N4C)c12 (some centres unmarked) [Compound 87]", "GDP-KRAS G12D (Homo sapiens, UniProt P01116, G12D)", 33.3),
    ("C[C@H]1CCOC[C@H]2N(C)c3nc(-c4cc(O)cc5ccc(F)c(Cl)c45)c(F)c4nc(OC[C@@]56CCCN5C[C@H](F)C6)nc(c34)N12 [Compound 119]", "GDP-KRAS G12D (Homo sapiens, UniProt P01116, G12D)", 1.53),
    ("N#Cc1c(N)sc2c(F)ccc(-c3c(F)c4c5c(nc(OC[C@@]67CCCN6C[C@H](F)C7)nc5c3F)N3CCCOC[C@H]3CO4)c12 (single isomer, unassigned) [Compound 163A]", "GDP-KRAS G12D (Homo sapiens, UniProt P01116, G12D)", 301),
    ("C#Cc1c(F)ccc2cc(N)cc(-c3nc4c5c(nc(OC[C@@]67CCCN6C[C@H](F)C7)nc5c3F)N3C/C(=N\\OC)COC[C@@H]3N4C)c12 [Compound 148]", "GDP-KRAS G12D (Homo sapiens, UniProt P01116, G12D)", 287),
    ("C#Cc1c(F)ccc2cc(N)cc(-c3nc4c5c(nc(OC[C@@]67CCCN6C[C@H](F)C7)nc5c3F)N3C(COCCN3C)N4C)c12 (some centres unmarked) [Compound 118]", "GDP-KRAS G12D (Homo sapiens, UniProt P01116, G12D)", 11.2),
    ("C#Cc1c(F)ccc2cc(N)cc(-c3nc4c5c(nc(OC[C@@]67CCCN6C[C@H](F)C7)nc5c3F)N3C/C(=N\\OC)COC[C@H]3N4C)c12 [Compound 137]", "GDP-KRAS G12D (Homo sapiens, UniProt P01116, G12D)", 1.86),
]

----------
target: GDP-KRAS G12D (Homo sapiens, UniProt P01116, G12D); assay: biochemical
Each entry below carries its recorded IC50.

# compound, target.desc, IC50, nM
rows = [
    ("C#Cc1c(F)ccc2cc(N)cc(-c3nc4c5c(nc(OC[C@@]67CCCN6C[C@H](F)C7)nc5c3F)N3CCCC[C@H](F)[C@H]3N4C)c12 [Compound 40A]", "GDP-KRAS G12D (Homo sapiens, UniProt P01116, G12D)", 0.875),
    ("C#Cc1c(F)ccc2cc(N)cc(-c3nc4c5c(nc(OC[C@@]67CCCN6C[C@H](F)C7)nc5c3F)N3[C@@H](C)CCOC[C@H]3N4C3CC3)c12", "GDP-KRAS G12D (Homo sapiens, UniProt P01116, G12D)", 3.72),
    ("C#Cc1c(F)ccc2cc(N)cc(-c3nc4c5c(nc(OCC(CN6CCOCC6)OC)nc5c3F)N3CCCOCC3N4C)c12 (stereo not drawn)", "GDP-KRAS G12D (Homo sapiens, UniProt P01116, G12D)", 233),
]
